target: Lysosomal acid glucosylceramidase (Homo sapiens) (UniProt P04062); assay: Enzyme stabilization ratio of recombinant glucocerebrosidase activity at 48 degC to at 37 degC at 100 uM after 60 mins
Binary call on Ratio: Fulfilled from 8 upward, Not fulfilled beneath that.

>  <structure_string>
O[C@@H]1[C@@H](O)[C@H](O)[C@@H](NCc2cn(CCCCC3CCCCC3)nn2)[C@H](O)[C@H]1O

>  <assigned_class>
Not fulfilled

$$$$
>  <structure_string>
OCCCCCCCCCCn1cc(CN[C@H]2[C@H](O)[C@@H](O)[C@H](O)[C@@H](O)[C@@H]2O)nn1

>  <assigned_class>
Not fulfilled

$$$$
>  <structure_string>
O[C@@H]1[C@@H](O)[C@H](O)[C@@H](NCc2cn(CC34CC5CC(CC(C5)C3)C4)nn2)[C@H](O)[C@H]1O

>  <assigned_class>
Not fulfilled

$$$$
>  <structure_string>
CCCCCCCCCCCn1cc(CN[C@H]2[C@H](O)[C@@H](O)[C@H](O)[C@@H](O)[C@@H]2O)nn1

>  <assigned_class>
Fulfilled

$$$$
>  <structure_string>
O[C@@H]1[C@@H](O)[C@H](O)[C@@H](NCc2cn(Cc3cc(OCc4ccccc4)cc(OCc4ccccc4)c3)nn2)[C@H](O)[C@H]1O

>  <assigned_class>
Fulfilled

$$$$
>  <structure_string>
O[C@@H]1[C@@H](O)[C@H](O)[C@@H](NCc2cn(CCC(c3ccccc3)c3ccccc3)nn2)[C@H](O)[C@H]1O

>  <assigned_class>
Not fulfilled

$$$$

As a next step, examine the compound that follows.
INPUT: Quick check: does `CCCCCCCCCCN[C@H]1[C@H](O)[C@@H](O)[C@H](O)[C@@H](O)[C@@H]1O` have Ratio greater than or equal to 8?
OUTPUT: Not fulfilled

###

target: Lysosomal acid glucosylceramidase (Homo sapiens); experiment: Inhibition of recombinant glucocerebrosidase in McIlvaine buffer at pH 7.4 after 10 mins by fluorometric analysis
Sequence (P04062 whole entry): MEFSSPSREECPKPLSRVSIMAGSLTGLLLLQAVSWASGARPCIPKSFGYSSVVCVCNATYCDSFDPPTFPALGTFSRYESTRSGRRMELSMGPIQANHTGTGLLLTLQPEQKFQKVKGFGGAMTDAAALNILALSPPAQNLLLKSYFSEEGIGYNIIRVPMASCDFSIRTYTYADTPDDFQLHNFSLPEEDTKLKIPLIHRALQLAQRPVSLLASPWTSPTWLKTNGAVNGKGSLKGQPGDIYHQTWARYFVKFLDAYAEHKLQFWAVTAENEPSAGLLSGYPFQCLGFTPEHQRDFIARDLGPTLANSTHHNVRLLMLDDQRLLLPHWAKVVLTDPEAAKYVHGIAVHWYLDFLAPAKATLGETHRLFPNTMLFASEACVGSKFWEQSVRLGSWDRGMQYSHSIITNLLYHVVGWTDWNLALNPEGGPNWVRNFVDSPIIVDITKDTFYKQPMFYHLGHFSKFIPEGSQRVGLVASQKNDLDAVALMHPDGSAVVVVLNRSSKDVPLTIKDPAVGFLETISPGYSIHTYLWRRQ
Property: IC50; scope: individual compounds
The answer should read as a number with its unit following.

Here is how some compounds turned out for IC50.
>  <structure_string>
O[C@@H]1[C@@H](O)[C@H](O)[C@@H](NCc2cn(Cc3cc(OCc4ccccc4)cc(OCc4ccccc4)c3)nn2)[C@H](O)[C@H]1O

>  <result>
60 nM

$$$$
>  <structure_string>
O[C@@H]1[C@@H](O)[C@H](O)[C@@H](NCc2cn(CC34CC5CC(CC(C5)C3)C4)nn2)[C@H](O)[C@H]1O

>  <result>
1900 nM

$$$$
>  <structure_string>
CCCCCCCCCCCn1cc(CN[C@H]2[C@H](O)[C@@H](O)[C@H](O)[C@@H](O)[C@@H]2O)nn1

>  <result>
100 nM

$$$$
>  <structure_string>
O[C@@H]1[C@@H](O)[C@H](O)[C@@H](NCc2cn(CCC(c3ccccc3)c3ccccc3)nn2)[C@H](O)[C@H]1O

>  <result>
1800 nM

$$$$
>  <structure_string>
OCCCCCCCCCCn1cc(CN[C@H]2[C@H](O)[C@@H](O)[C@H](O)[C@@H](O)[C@@H]2O)nn1

>  <result>
1300 nM

$$$$

INPUT: Answer with IC50 of `O[C@@H]1[C@@H](O)[C@H](O)[C@@H](NCc2cn(CCCCC3CCCCC3)nn2)[C@H](O)[C@H]1O` measured for Lysosomal acid glucosylceramidase (Homo sapiens).
OUTPUT: 300 nM
